Source listed as patent US20190241669A1.

tgt: T1, cynomolgus monkey BCMA (cynomolgus monkey, UniProt A0A2K5UD97 1-53)
T1 construct: Soluble analyte in SPR; construct not described; also called cyBCMA; Cyno BCMA
test: SPR, IgG on chip, cyBCMA analyte
# Lookup of reported kon keyed by entry

# binder, unit-text, kon
records = [
    ("A02_Rd4_6nM_C19 (antibody, V domains shown, IgG) VH: EVQLLESGGGLVQPGGSLRLSCAASGFTFSSYAMNWVRQAPGKGLEWVSAISDSGGSRWYADSVKGRFTISRDNSKNTLYLQMNSLRAEDTAVYYCARYWPMSDWGQGTLVTVSS VL: EIVLTQSPGTLSLSPGERATLSCRASQSVSVLYLAWYQQKPGQAPRLLMYDASIRATGIPDRFSGSGSGTDFTLTISRLEPEDFAVYYCQQYLAWPLTFGQGTKVEIK", "M⁻¹ s⁻¹", "2.54e+06"),
    ("COMBO_Rd4_6nM_C25 (antibody, V domains shown, IgG) VH: EVQLLESGGGLVQPGGSLRLSCAASGFTFSSYPMSWVRQAPGKGLEWVSAIGGSGGSTYYADSVKGRFTISRDNSKNTLYLQMNSLRAEDTAVYYCARYWPMDPWGQGTLVTVSS VL: EIVLTQSPGTLSLSPGERATLSCRASQSVSSPYLAWYQQKPGQAPRLLMYDASIRATGIPDRFSGSGSGTDFTLTISRLEPEDFAVYYCQQYQSWPLTFGQGTKVEIK", "M⁻¹ s⁻¹", "2.85e+06"),
    ("C01_Rd4_0.6nM_C27 (antibody, V domains shown, IgG) VH: EVQLLESGGGLVQPGGSLRLSCAASGFTFSSYPMSWVRQAPGKGLEWVSAIGGSGGSLPYADSVKGRFTISRDNSKNTLYLQMNSLRAEDTAVYYCARYWPMDSWGQGTLVTVSS VL: EIVLTQSPGTLSLSPGERATLSCRASQSVSSTYLAWYQQKPGQAPRLLIYDASSRAPGIPDRFSGSGSGTDFTLTISRLEPEDFAVYYCQQYSRWPLTFGQGTKVEIK", "M⁻¹ s⁻¹", "3.34e+06"),
    ("A02_Rd4_0.6nM_C03 (antibody, V domains shown, IgG) VH: EVQLLESGGGLVQPGGSLRLSCAASGFTFSSYAMNWVRQAPGKGLEWVSAISDSGGSKWYADSVKGRFTISRDNSKNTLYLQMNSLRAEDTAVYYCARYWPMSLWGQGTLVTVSS VL: EIVLTQSPGTLSLSPGERATLSCRASQSVSSSYLAWYQQKPGQAPRLLMYDASIRATGIPDRFSGSGSGTDFTLTISRLEPEDFAVYYCQQYFTWPLTFGQGTKVEIK", "M⁻¹ s⁻¹", "2.12e+06"),
    ("A02_Rd4_0.6nM_C06 (antibody, V domains shown, IgG) VH: EVQLLESGGGLVQPGGSLRLSCAASGFTFSSYAMNWVRQAPGKGLEWVSAISDSGGSAWYADSVKGRFTISRDNSKNTLYLQMNSLRAEDTAVYYCARYWPMSLWGQGTLVTVSS VL: EIVLTQSPGTLSLSPGERATLSCRASQSVSVLYLAWYQQKPGQAPRLLMYDASIRATGIPDRFSGSGSGTDFTLTISRLEPEDFAVYYCQQYQRWPLTFGQGTKVEIK", "M⁻¹ s⁻¹", "1.81e+06"),
]
